The molecules below have reported pIC50 for PI3K alpha (Homo sapiens, UniProt P42336).
pIC50: −log10 of the molar value.

molecule	pIC50
NC(=O)CNc1nc(-c2cccc(O)c2)nc(N2CCOCC2)n1	> 5.30

Prompt line: Item: CN(C)C(=O)c1ccc(Oc2nc(-c3cccc4[nH]ncc34)nc(N3CCC(=O)CC3)n2)cc1 Test system: PI3K alpha (Homo sapiens, UniProt P42336) Read-out: pIC50 Value: ?
Response line: < 5.30

Prompt line: Which measured pIC50 belongs to O=C(O)CCNc1nc(-c2cccc3[nH]ncc23)nc(N2CCOCC2)n1 , tested on PI3K alpha (Homo sapiens, UniProt P42336)?
Response line: > 5.30

Prompt line: Query for PI3K alpha (Homo sapiens, UniProt P42336): what pIC50 does the record show for CN(C)C(=O)CNc1nc(-c2cncc(O)c2)nc(N2CCOCC2)n1 ?
Response line: > 5.30

Prompt line: Field: pIC50 (PI3K alpha (Homo sapiens, UniProt P42336)). Entry: CN(C)C(=O)CCNc1nc(-c2ccc(N)nc2)nc(N2CCOCC2)n1
Response line: > 5.30

Prompt line: Please provide the recorded pIC50 for Nc1cccc(-c2nc(NCC(=O)O)nc(N3CCOCC3)n2)c1 , tested on PI3K alpha (Homo sapiens, UniProt P42336).
Sequence (P42336 whole entry): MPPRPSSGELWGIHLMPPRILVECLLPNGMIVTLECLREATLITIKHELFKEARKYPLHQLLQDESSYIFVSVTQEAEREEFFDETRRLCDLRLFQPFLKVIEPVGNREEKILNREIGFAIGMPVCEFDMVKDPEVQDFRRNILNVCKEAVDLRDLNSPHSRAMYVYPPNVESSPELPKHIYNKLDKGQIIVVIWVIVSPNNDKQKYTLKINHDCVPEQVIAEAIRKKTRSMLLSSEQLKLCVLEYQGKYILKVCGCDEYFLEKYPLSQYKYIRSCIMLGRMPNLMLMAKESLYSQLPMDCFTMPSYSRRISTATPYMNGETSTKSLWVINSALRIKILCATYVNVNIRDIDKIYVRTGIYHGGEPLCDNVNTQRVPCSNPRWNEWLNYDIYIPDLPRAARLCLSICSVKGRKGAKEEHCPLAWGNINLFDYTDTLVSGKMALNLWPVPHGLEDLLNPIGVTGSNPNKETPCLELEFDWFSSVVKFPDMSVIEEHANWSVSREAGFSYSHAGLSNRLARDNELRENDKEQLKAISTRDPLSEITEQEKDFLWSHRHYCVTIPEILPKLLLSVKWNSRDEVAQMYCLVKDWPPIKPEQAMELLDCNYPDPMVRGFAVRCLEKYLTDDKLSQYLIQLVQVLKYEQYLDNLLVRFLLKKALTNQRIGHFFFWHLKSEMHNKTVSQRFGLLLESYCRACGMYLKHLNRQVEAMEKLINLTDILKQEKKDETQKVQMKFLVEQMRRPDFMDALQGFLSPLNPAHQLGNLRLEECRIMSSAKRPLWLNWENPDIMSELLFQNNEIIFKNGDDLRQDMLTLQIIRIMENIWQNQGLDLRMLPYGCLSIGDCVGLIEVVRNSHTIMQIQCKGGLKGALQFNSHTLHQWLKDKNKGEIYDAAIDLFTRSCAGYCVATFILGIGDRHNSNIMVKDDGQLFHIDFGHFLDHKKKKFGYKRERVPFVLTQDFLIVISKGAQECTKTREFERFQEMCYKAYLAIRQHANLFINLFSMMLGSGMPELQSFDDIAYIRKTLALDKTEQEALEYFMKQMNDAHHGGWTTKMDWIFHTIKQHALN
Sequence (P27986 whole entry partner): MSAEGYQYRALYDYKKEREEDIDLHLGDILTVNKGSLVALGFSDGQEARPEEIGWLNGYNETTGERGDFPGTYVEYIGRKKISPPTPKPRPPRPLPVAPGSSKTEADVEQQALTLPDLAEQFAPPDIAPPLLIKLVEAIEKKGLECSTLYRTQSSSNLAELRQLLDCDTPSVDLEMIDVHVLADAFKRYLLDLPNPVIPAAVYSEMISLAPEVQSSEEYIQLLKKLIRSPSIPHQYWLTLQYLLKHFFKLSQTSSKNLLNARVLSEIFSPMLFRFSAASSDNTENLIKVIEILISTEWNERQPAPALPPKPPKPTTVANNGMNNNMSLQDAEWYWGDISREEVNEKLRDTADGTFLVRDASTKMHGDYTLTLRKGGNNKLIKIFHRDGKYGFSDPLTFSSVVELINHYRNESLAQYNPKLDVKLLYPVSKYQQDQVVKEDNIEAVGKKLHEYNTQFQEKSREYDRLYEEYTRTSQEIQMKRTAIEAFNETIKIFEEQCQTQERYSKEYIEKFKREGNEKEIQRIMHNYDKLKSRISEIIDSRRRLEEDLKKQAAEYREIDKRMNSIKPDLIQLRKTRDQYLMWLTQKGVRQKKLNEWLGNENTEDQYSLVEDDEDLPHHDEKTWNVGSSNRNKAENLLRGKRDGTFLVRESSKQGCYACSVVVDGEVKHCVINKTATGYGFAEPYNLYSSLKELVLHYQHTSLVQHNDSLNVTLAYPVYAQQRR
Response line: < 5.30
